Assay: yeast display, Sf9 membrane polyspecificity reagent, FACS + sequencing; frameworks hold sequencing errors
Reported Endpoint: polyreactivity (PSR sort gate)

See these solved cases before continuing.
Primary Sequence | polyreactivity (PSR sort gate)
QVQLVESGGGLVQAGGSLRLSCAASGSTFYPYAMGWYRQAPGKEREFVAGISRSGGTTYYADSLKGRFTISRDNAKNTVYLQMNSLKPEDTAVYYCAVQIPYVYWSYDYWGQGTEVTVSS | low polyreactivity
QVQLVESGGGLVQAGGSLRLSCAASGSNFTSNGMGWYRQAPGKERELVAAITRRGGRTYYADSVKGRFTISRDNAKNTVYLQMNSLKPEDTAVYYCAAKSTSLYDYWGQGTQVTVSS | low polyreactivity
QVQLVESGGGIVQAVGSLRLSCAASGSTFRLYAMGWYRQAPGKERELVAAISSNGVRTYYADSVKGRFTISRDNAKNTVYLQINSLKPEDTAVYYCAARVYPAYPRGYDYWGQGTQVNVSS | high polyreactivity
QVQLVESGGGLVQAGGSHGLSCAASGRTFYYYAMGWYRPAPGKERELVAAITSGGRTYYADSVKGRFTISRDNAKNTDYLQMNRLKPEDTAVYYCAADLSDPDWSRYQWDMDYWGQGTQVTVSS | low polyreactivity
QVQLVESGGGLVQAGGSLRLSCAASGSTFRAYAMGWYRQAPGKERELVAAISRSGGSTYYADSVKGRFTISRDNAKNTVYLQMNSLKPEDTAVYYCNAAYKNYQYRPPNIDGQGDYWGQGTQVTVSS | high polyreactivity

Problem: # get_value(readout='polyreactivity (PSR sort gate)', item= QVQLVESGGGLVQAGGSLRLSCAASGFTIRRYAMGWYRQAPGKERELVAAITRSAGSTYYADSVKGRFTISRDNAKNTVYLQMNSLKPEDTAVYYCAARWTRWGADSGYYWGQGTQVTVSS )
Solution: high polyreactivity

Problem: # get_value(readout='polyreactivity (PSR sort gate)', item= QVQLVESGGGLVQAGGSLRLSCAASGRTFFYAMGWYRQAPGKEREFVAAISWSGGSTYYADSVKGRFTISRDNAKNTVYLQMNSLKPEDTAVYYCYKVGYYGVGTSKEFDYWGQGTQVTVSS )
Solution: high polyreactivity

Problem: # get_value(readout='polyreactivity (PSR sort gate)', item= QVQLVESGGGLVQAGGSLRLSCAASGSTVYQYVMGRYRQAPGKVREFVAAITFSGSRTYYADSVKGRFTISRDNAKNTVYLQMNSLKPEDTAVYYCAVHSTSPRGKRYEYWGQGTQVTVSS )
Solution: high polyreactivity

Problem: # get_value(readout='polyreactivity (PSR sort gate)', item= QVQLVESGGGLVQAGGSLRLSCAASGFIFAANAMGRYRQAPGKEREMVAAISESGGSTYYADSVKGRFTISRDNAKNTVYLQLNSLKPEDTAVYYCNADIVWSPVLGEYYYWGQGTQVTVSS )
Solution: high polyreactivity

Problem: # get_value(readout='polyreactivity (PSR sort gate)', item= QVQLVESGGGLVQAGGSLRLSCAASGFTFDRNAMGWYRQATWKERELVAAITWTGGSTYYADSVKGRFTISRDNAKNTVYLQMNSLKPEDTAVYYCAATLPYSRGWFYYWGQGTQVTVSS )
Solution: high polyreactivity

Problem: # get_value(readout='polyreactivity (PSR sort gate)', item= QFQLVESGGGLVQAGASLRLSCAASGRIFEIYAMGWYRQAPGKDRELVAASSWRGVSTYYADSVKGRFTITRDNAKKTVYLQMNSLKPEDTAVYYCNKDVDYFWYVEYDYWGHGTQVTVSS )
Solution: low polyreactivity
